Data provenance: patent US20060281807A1

System: HCT-116 cells
Assay details: HCT-116 cytotoxicity, viable cell count by trypan blue
Assay type: cell-based, human
Setup conditions: HCT-116
Property name: IC90/IC50
Hey, just send me the number, nothing else.

I would be grateful if you could share the reported IC90/IC50 for `CC1=CC(=O)[C@@H](O)[C@]2(C)[C@H]3[C@@]4(O)OC[C@]35[C@H]([C@@H](C)[C@H]4O)[C@@H](O)C(=O)O[C@@H]5C[C@@H]12` . 58

Record: COC(=O)[C@@]12OC[C@@]34C1[C@@H](OC(=O)C=C(C(C)C)C(C)C)C(=O)O[C@@H]3C[C@H]1C(C)=C(O)C(=O)C[C@]1(C)[C@H]4[C@@H](O)[C@@H]2O (some centres unmarked) 7

Record: COC(=O)[C@@]12OC[C@@]34C1[C@@H](OC(=O)CC(O)(C(C)C)C(C)C)C(=O)O[C@@H]3C[C@H]1C(C)=C(O)C(=O)C[C@]1(C)[C@H]4[C@@H](O)[C@@H]2O (some centres unmarked) 35

Record: `CC[C@@](O)(CC(=O)O[C@@H]1C(=O)O[C@@H]2C[C@@H]3C(C)=CC(=O)[C@H](O)[C@]3(C)[C@H]3[C@]4(O)OC[C@]32[C@@H]1[C@@H](C)[C@H]4O)C(C)C` 13

---

Tested on: Colon 38 (murine colon adenocarcinoma)
Assay details: Disk diffusion assay, zone of inhibition, Colon 38; zone differentials, potency and product
Type: cell-based
Setup conditions: difference between zone of inhibition values, Colon38 vs normal cell CFU-GM
Could you please report measured C38ΔCFU for the items listed next?

I would be grateful if you could share the reported C38ΔCFU for COC(=O)[C@@]12OC[C@]34[C@H]([C@@H](O)[C@@H]1O)[C@@]1(C)CC(=O)C(O)=C(C)[C@@H]1C[C@H]3OC(=O)[C@H](OC(=O)/C=C(\C)C(C)C)[C@@H]24 [Bruceantin, bruceantin] . 550

Record: C=CCOC(=O)O[C@H]1C(=O)O[C@@H]2C[C@H]3C(C)=C(O)C(=O)C[C@]3(C)[C@H]3[C@@H](O)[C@H](O)[C@@]4(C(=O)OC)OC[C@]32[C@@H]14 [15-O-(allyloxycarbonyl)-bruceolide] 550

Record: COC(=O)C12OCC34C(CC5C(C)=C(O)C(=O)CC5(C)C3C(O)C1O)OC(=O)C(OC(=O)CC(C)(C)O)C24 (stereo not drawn) 550

Record: CCC(O)(CC(=O)OC1C(=O)OC2CC3C(C)=C(O)C(=O)CC3(C)C3C(O)C(O)C4(C(=O)OC)OCC23C14)C(C)C (mixture of isomers) 550

Record: COC(=O)C12OCC34C(CC5C(C)=C(O)C(=O)CC5(C)C3C(O)C1O)OC(=O)C(OC(=O)c1cc(C)oc1C)C24 (stereo not drawn) 550

Record: COC(=O)C12OCC34C(CC5C(C)=C(O)C(=O)CC5(C)C3C(O)C1O)OC(=O)C(OC(=O)Cc1ccccc1)C24 (stereo not drawn) [15-O-phenylacetyl bruceolide] 500

---

Assay details: Pharmacokinetics, plasma and tumor concentration by HPLC in HCT-116 tumor-bearing SCID mice
Format: in vivo
Setup conditions: SCID, in vivo; 1 hour time point, intravenous (FIG. 8: 0.075 mg/mouse); below sensitivity of the assay
Property name: concentration at 1 h

I would be grateful if you could share the reported concentration at 1 h for COC(=O)[C@@]12OC[C@@]34C1[C@@H](OC(=O)C=C(C(C)C)C(C)C)C(=O)O[C@@H]3C[C@H]1C(C)=C(O)C(=O)C[C@]1(C)[C@H]4[C@@H](O)[C@@H]2O (stereo partly shown) . < 50 ng/mL

---

Test system: L1210 (murine leukemia)
Assay details: Disk diffusion assay, zone of inhibition, L1210
Assay type: cell-based
Setup conditions: 1 mg/mL, no dilution; 15 μl on disk; 6.5 mm = 200 units
Could you please report measured zone of inhibition, L1210 for the items listed next?
Numbers only; they are read as units.

I would be grateful if you could share the reported zone of inhibition, L1210 for `CC(=O)O[C@H]1C(=O)[C@@]2(C)[C@H]([C@H](OC(=O)c3ccccc3)[C@]3(O)C[C@H](OC(=O)[C@H](O)[C@@H](NC(=O)c4ccccc4)c4ccccc4)C(C)=C1C3(C)C)[C@]1(OC(C)=O)CO[C@@H]1C[C@@H]2O` . 650

Record: `CC1=CC(=O)[C@@H](O)[C@]2(C)[C@H]3[C@@]4(O)OC[C@]35[C@H]([C@@H](C)[C@H]4O)[C@@H](O)C(=O)O[C@@H]5C[C@@H]12` 400

Record: COC(=O)[C@@]12OC[C@@]34C1[C@@H](OC(=O)CC(O)(C(C)C)C(C)C)C(=O)O[C@@H]3C[C@H]1C(C)=C(O)C(=O)C[C@]1(C)[C@H]4[C@@H](O)[C@@H]2O (stereo partly drawn) 1000

---

Assay details: in vivo
Setup conditions: mouse, in vivo, iv, maximum tolerated dose, Dose - 4 Mice, second stage, four mice per dose
Property name: MTD (mg/kg)
Numbers only; they are read as mg/kg.

I would be grateful if you could share the reported MTD for COC(=O)[C@@]12OC[C@@]34C1[C@@H](OC(=O)CC(O)(C(C)C)C(C)C)C(=O)O[C@@H]3C[C@H]1C(C)=C(O)C(=O)C[C@]1(C)[C@H]4[C@@H](O)[C@@H]2O (stereo partly shown) . 60

---

Could you please report measured zone of inhibition, L1210 for the items listed next?
Tested on: L1210 (murine leukemia)
Assay details: Disk diffusion assay, zone of inhibition, L1210
Assay type: cell-based
Setup conditions: 1 mg/mL, dilution 1/10
Numbers only; they are read as units.

I would be grateful if you could share the reported zone of inhibition, L1210 for COC(=O)[C@@]12OC[C@]34[C@H]([C@@H](O)[C@@H]1O)[C@@]1(C)CC(=O)C(O)=C(C)[C@@H]1C[C@H]3OC(=O)[C@H](OC(=O)/C=C(\C)C(C)C)[C@@H]24 [Bruceantin, bruceantin] . 1000

Record: COC(=O)[C@@]12OC[C@@]34C1[C@@H](OC(=O)CC(O)(C(C)C)C(C)C)C(=O)O[C@@H]3C[C@H]1C(C)=C(O)C(=O)C[C@]1(C)[C@H]4[C@@H](O)[C@@H]2O (stereo partly shown) 550

Record: COC(=O)[C@@]12OC[C@@]34C1[C@@H](OC(=O)C=C(C(C)C)C(C)C)C(=O)O[C@@H]3C[C@H]1C(C)=C(O)C(=O)C[C@]1(C)[C@H]4[C@@H](O)[C@@H]2O (stereo partly shown) 1000

---

Assay details: Maximum tolerated dose in mice
Setup conditions: mouse, in vivo, iv, maximum tolerated dose, Dose - 1 Mouse, first stage, one mouse per dose
Property name: MTD at 30 days (mg/kg)
Numbers only; they are read as mg/kg.

I would be grateful if you could share the reported MTD at 30 days for COC(=O)[C@@]12OC[C@@]34C1[C@@H](OC(=O)C=C(C(C)C)C(C)C)C(=O)O[C@@H]3C[C@H]1C(C)=C(O)C(=O)C[C@]1(C)[C@H]4[C@@H](O)[C@@H]2O (stereo partly shown) . 2.9

---

Assay details: Maximum tolerated dose in mice
Setup conditions: mouse, in vivo, iv, maximum tolerated dose, Dose - 4 Mice, second stage, four mice per dose
Property name: MTD at 30 days (mg/kg)
Numbers only; they are read as mg/kg.

I would be grateful if you could share the reported MTD at 30 days for COC(=O)[C@@]12OC[C@@]34C1[C@@H](OC(=O)C=C(C(C)C)C(C)C)C(=O)O[C@@H]3C[C@H]1C(C)=C(O)C(=O)C[C@]1(C)[C@H]4[C@@H](O)[C@@H]2O (stereo partly shown) . 4

---

Test system: Colon 38 (murine colon adenocarcinoma)
Assay details: Disk diffusion assay, zone of inhibition, Colon 38; zone differentials, potency and product
Assay type: cell-based
Setup conditions: potency multiplied by zone differentials
Could you please report measured Product for the items listed next?

I would be grateful if you could share the reported Product for COC(=O)C12OCC34C(CC5C(C)=C(O)C(=O)CC5(C)C3C(O)C1O)OC(=O)C(OC(=O)C=C1CCCC1)C24 (stereo not shown) [15-O-(cyclopentylideneacetyl)-bruceolide] . 4000

Record: CCC(O)(CC)CC(=O)OC1C(=O)OC2CC3C(C)=C(O)C(=O)CC3(C)C3C(O)C(O)C4(C(=O)OC)OCC23C14 (stereo not shown) 3400

Record: COC(=O)C12OCC34C(CC5C(C)=C(O)C(=O)CC5(C)C3C(O)C1O)OC(=O)C(OC(=O)Cc1ccccc1)C24 (stereo not shown) [15-O-phenylacetyl bruceolide] 4000

Record: COC(=O)C12OCC34C(CC5C(C)=C(O)C(=O)CC5(C)C3C(O)C1O)OC(=O)C(OC(=O)CC(C)(C)O)C24 (stereo not shown) 2850

Record: COC(=O)C12OCC34C(CC5C(C)=C(O)C(=O)CC5(C)C3C(O)C1O)OC(=O)C(OC(=O)CC1(O)CCCCC1)C24 (stereo not shown) 3000

Record: COC(=O)[C@@]12OC[C@]34[C@H]([C@@H](O)[C@@H]1O)[C@@]1(C)CC(=O)C(O)=C(C)[C@@H]1C[C@H]3OC(=O)[C@H](OC(=O)C1=CCCCC1)[C@@H]24 [15-O-(1′-cyclohexenoyl)-bruceolide] 550

Record: COC(=O)[C@@]12OC[C@@]34C1[C@@H](OC(=O)C=C(C(C)C)C(C)C)C(=O)O[C@@H]3C[C@H]1C(C)=C(O)C(=O)C[C@]1(C)[C@H]4[C@@H](O)[C@@H]2O (stereo partly shown) 4500

Record: C=CCOC(=O)O[C@H]1C(=O)O[C@@H]2C[C@H]3C(C)=C(O)C(=O)C[C@]3(C)[C@H]3[C@@H](O)[C@H](O)[C@@]4(C(=O)OC)OC[C@]32[C@@H]14 [15-O-(allyloxycarbonyl)-bruceolide] 4100

Record: COC(=O)C12OCC34C(CC5C(C)=C(O)C(=O)CC5(C)C3C(O)C1OC(=O)OCC1COC(C)(C)O1)OC(=O)C(OC(=O)OCC1COC(C)(C)O1)C24 (stereo not shown) 2000

Record: CCCCCC(=O)OC1C(=O)OC2CC3C(C)=C(O)C(=O)CC3(C)C3C(O)C(O)C4(C(=O)OC)OCC23C14 (stereo not shown) [15-O-hexanoylbruceolide] 600
